test: Caco-2 permeability test; settings: human, Caco-2
Where a name gives a salt, the structure may show the parent alone.
measure.name: Papp B→A at 120 min (nm/s)
Number only, in nm/s; omit the unit.

Answered cases to consult:
>>> obs_value("Cc1noc2cc(-c3c(-c4ccc(C#N)c(F)c4)nc(N4CCC(N)CC4)n4ccnc34)c(F)cc12")
250
>>> obs_value("CS(=O)(=O)N1CCN(C(=O)c2cc(CCN[C@@H]3C[C@H]3c3ccc(F)cc3)nc(-c3ccc(-n4cccn4)cc3)n2)CC1")
69.2
>>> obs_value("COc1ccc(-c2c(-c3ccc(C#N)c(F)c3)nc(N3CCC(N)CC3)n(C)c2=O)cc1F [(CC90011), reference compound]")
410
>>> obs_value("Cc1ccc(-c2nc(CN[C@@H]3C[C@H]3c3ccc(F)cc3)cc(C(=O)NC3CCOCC3)n2)cc1O")
39.9
>>> obs_value("O=C(NC1CCOCC1)c1cc(CN[C@@H]2C[C@H]2c2ccc(F)cc2)nc(-c2ccc(N3CCOCC3)cc2)n1 [Example 246, hydrochloride]")
33.6
>>> obs_value("COc1ccc(-c2c(O)cc(N3CCC(N)CC3)nc2-c2ccc(C#N)c(F)c2)cc1F [Example 11, formate]")
272
>>> obs_value("COc1ccc(-c2c(-c3ccc(C#N)c(F)c3)nc(N3CCC(N)CC3)n3ccnc23)cc1O")
247
>>> obs_value("COc1ccc(-c2c(OC)cc(N3CCC(N)CC3)nc2-c2ccc(C#N)c(F)c2)cc1F")
33.5

Let us move to another entry and its Papp B→A at 120 min.
Report Papp B→A at 120 min for CS(=O)(=O)N1CCN(C(=O)c2cc(CN[C@@H]3C[C@H]3c3ccc(F)cc3)nc(-c3ccc(-n4cccn4)cc3)n2)CC1 please.
150
